# Test system: KATO-III cells (gastric carcinoma)
# Assay Summary: MTT antiproliferative/cytotoxic assay, KATO-III
# Type: cell-based
# Test Settings: Homo sapiens, 72 h exposure, read-out: IC50, in vitro antiproliferative/cytotoxic activity
Recorded Metric: IC50 (µM)
Write down the numeric answer in µM and omit the unit.

Send back KATO-III cells (gastric carcinoma) IC50 of CCCCCCCCCCCCCCCc1cc(O)cc(O)c1 only.
8.78

---

# Assay Summary: MTT antiproliferative/cytotoxic assay, non-transformed Hs27
# Type: cell-based
# Test Settings: human, Hs27 non-transformed foreskin fibroblast cells, Hs27, 72 h exposure, read-out: IC50, in vitro antiproliferative/cytotoxic activity
Recorded Metric: IC50 at 72 h (µM)
Write down the numeric answer in µM and omit the unit.

Find the measured IC50 at 72 h of CCCCCCCCCCCCCCCc1cc(O)cc(O)c1 and report it.
1.3

---

# System: BT474 cells (duet carcinoma)
# Assay Summary: MTT antiproliferative/cytotoxic assay, BT474
# Assay type: cell-based, human
# Test Settings: Homo sapiens, BT-474; BT474, 72 h exposure, MTT; read-out: IC50, in vitro antiproliferative/cytotoxic activity
Recorded Metric: IC50 (µM)
Write down the numeric answer in µM and omit the unit.

Find the measured IC50 of CCCCCCCCCCCCCCCc1cc(O)cc(O)c1 and report it.
9.61

---

# System: SW620 cells (colon adenocarcinoma)
# Assay Summary: MTT antiproliferative/cytotoxic assay, SW620
# Assay type: cell-based, human
# Test Settings: SW620, 72 h exposure, MTT; listed as compound 2; read-out: IC50, in vitro antiproliferative/cytotoxic activity
Recorded Metric: IC50

Send back SW620 cells (colon adenocarcinoma) IC50 of CCCCCCCCCCCCCCCc1cc(O)cc(O)c1 [Compound 2] only.
< 6.8 µM
